assay.overview: In vivo pharmacokinetics IV and PO (Table 1A)
Parameters: species or system mouse
setup.conditions: male, CD-1, mouse; plasma, single 50 mg/kg oral dose; read-out: mean tissue residence time (MRT)
experimental.readout: MRT (h)
Output spec: scalar in h, unitless text.

Quick note, MRT for O=C(N[C@H]1CC[C@H](O)CC1)C1CC1CCCc1ccccc1 (mixture of isomers) landed at 3.58

====

assay.overview: In vivo pharmacokinetics IV and PO (Table 1A)
Design: species or system mouse
setup.conditions: male, CD-1, mouse, plasma, iv, 10 mg/kg; read-out: Vdss
experimental.readout: Vd (L/kg)
Answer with a number only, understood to be in L/kg.

Recorded result, O=C(N[C@H]1CC[C@H](O)CC1)C1CC1CCCc1ccccc1 (mixture of isomers) [Compound 2] , Vd: 0.6
